Here, each record is paired with measured TGI data.
assay: Growth inhibition of human NCI-ADR-RES cells after 48 hrs; type: functional; conditions: read-out: pTGI (converted)
Use µM as the unit, but write only the number.

In the examples that follow, each entry is paired with its recorded TGI.
>  <smilesText>
COc1ccc(N(CC(=O)NCCC[Te]c2ccccc2)C(=O)CNC(=O)OC(C)(C)C)cc1

>  <TGI / µM>
7.24

$$$$
>  <smilesText>
CC1=C(SCCC(=O)OCC(=O)NCCC[Te]c2ccccc2)C(=O)c2ccccc2C1=O

>  <TGI / µM>
10.2

$$$$

Query string: Output TGI of "COc1ccc(N(CC(=O)NCCC[Te]c2ccccc2)C(=O)CCSC2=C(C)C(=O)c3ccccc3C2=O)cc1"
Result string: 5.01

Query string: Output TGI of "COc1ccc(N(CC(=O)NCCC[Te]c2ccccc2)C(=O)c2ccccc2)cc1"
Result string: 10.7
